# method: Blood concentrations and pharmacokinetics after 1 mg/kg i.v. in mice
# Assay type: in vivo, mouse
# test parameters: mouse, in vivo, iv, 1 mg/kg, mouse blood, mean, read-out: MRT0-inf, Mean S.D.
endpoint: MRT inf (h)
Numbers only, in h.

Q: // MRT inf lookup, key: Cc1nn(C)c2nc(NNC(=O)Nc3cc(Cl)nc(Cl)c3)cc(C(C)C)c12
A: 2.51

* * *

# method: Blood concentrations and pharmacokinetics after 1 mg/kg i.v. in mice
# Assay type: in vivo, mouse
# test parameters: mouse, in vivo, iv, 1 mg/kg, mouse, 1 h, individual mice, LLOQ = 1 ng/mL, read-out: Blood Concentrations
endpoint: concentration at 1 h (ng/mL)
One number for each entry, in ng/mL.

Q: Returns the measured concentration at 1 h for the input molecule. Input: Cc1nn(C)c2nc(NNC(=O)Nc3cc(Cl)nc(Cl)c3)cc(C(C)C)c12 [JTE013]
A: 11.8
